B1: TPR t1 (parent)
chain: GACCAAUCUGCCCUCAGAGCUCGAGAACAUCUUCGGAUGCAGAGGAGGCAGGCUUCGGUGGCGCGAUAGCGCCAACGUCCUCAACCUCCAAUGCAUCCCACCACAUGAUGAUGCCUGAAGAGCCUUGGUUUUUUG

Variants of: B1
Assay: polymerase ribozyme fitness, log enrichment relative to wild type (log ratio); higher = more active; in vitro selection for triplet polymerase activity
observable: polymerase ribozyme fitness (log ratio)

{"mutation.label": "C34A G42U C70G U81A C101A", "obs.value": -8.04}
{"mutation.label": "A6U A43U U96A G122A", "obs.value": -2.28}
{"mutation.label": "G48U C79A U112A", "obs.value": -2.84}
{"mutation.label": "C82U C89U G113U G120A G128A", "obs.value": -5.47}
{"mutation.label": "U109A C114U A118C", "obs.value": -5.26}
{"mutation.label": "G71A G128C", "obs.value": -3.14}
{"mutation.label": "C3U C86A", "obs.value": -0.57}
{"mutation.label": "C13U G36A C88U", "obs.value": -0.556}
{"mutation.label": "C20U C72G A91G C101A C114G", "obs.value": -2.36}
{"mutation.label": "C53G G60A C104A U125A U131A", "obs.value": -3.15}
{"mutation.label": "C4A G52C A74C", "obs.value": -2.47}
{"mutation.label": "C22G G69A A90U U106A A111U", "obs.value": -4.92}
{"mutation.label": "G58C C72G A121U", "obs.value": 1.78}
{"mutation.label": "A100C G122A", "obs.value": -1.49}
{"mutation.label": "G36A C56A G61A", "obs.value": -2.16}
{"mutation.label": "G77A C79U C124A", "obs.value": 1.87}
{"mutation.label": "A50C G61U C79A", "obs.value": -2.63}
{"mutation.label": "C11U A18U C53U C72G C82G U96G C98U C104U U109C", "obs.value": -7.77}
{"mutation.label": "C13U C40A C82A C89A", "obs.value": -2.38}
{"mutation.label": "C11G G65C", "obs.value": -5.03}
{"mutation.label": "C53A C73A U78G G110U", "obs.value": -0.702}
{"mutation.label": "C8A C64U U78A C94G A100U C102A U112A G128A U129A G135C", "obs.value": -4.75}
{"mutation.label": "C12A A37C A46C C88U", "obs.value": -2.57}
{"mutation.label": "C12G C73A C79A C86U", "obs.value": -0.241}
{"mutation.label": "U7A G17U A74U G117A A118G", "obs.value": -4.25}
{"mutation.label": "C12G C20A C49A", "obs.value": -2.49}
{"mutation.label": "C85G A119G", "obs.value": -0.0195}
{"mutation.label": "A6U G44U C53U G77U G110A", "obs.value": -3.2}
{"mutation.label": "C56U U92C", "obs.value": -0.619}
{"mutation.label": "A6U A90U C98G C102U A108U C123G", "obs.value": -6.7}
{"mutation.label": "A2U G120U", "obs.value": -1.32}
{"mutation.label": "G42A G128C", "obs.value": -4.63}
{"mutation.label": "G44A G61U", "obs.value": -0.0446}
{"mutation.label": "C11A G47A G77A", "obs.value": -2.62}
{"mutation.label": "C49A C64U C123U", "obs.value": 0.702}
{"mutation.label": "C20U U32C U106A", "obs.value": -2.46}
{"mutation.label": "A37U G63C A68U U78A U106A", "obs.value": -5.67}
{"mutation.label": "G60A C94A G128C", "obs.value": -3.09}
{"mutation.label": "C13A G47A", "obs.value": -2.5}
